Test system: Homo sapiens
assayInfo: Terminal half life in healthy human subjects dosed as single 400 mg dose on Day 1 followed by PK sampling (Days 1 to 14)
Format: ADME, organism-based
condition: in vivo
measuredProperty: beta t1/2

What reported beta t1/2 corresponds to COc1nc2ccc(Br)cc2cc1[C@@H](c1ccccc1)[C@@](O)(CCN(C)C)c1cccc2ccccc12 on Homo sapiens? 5 to 6 months
